target or test system: Cysteinyl leukotriene receptor 1 (Cavia porcellus, UniProt Q2NNR5)
Sequence (Q2NNR5 whole entry): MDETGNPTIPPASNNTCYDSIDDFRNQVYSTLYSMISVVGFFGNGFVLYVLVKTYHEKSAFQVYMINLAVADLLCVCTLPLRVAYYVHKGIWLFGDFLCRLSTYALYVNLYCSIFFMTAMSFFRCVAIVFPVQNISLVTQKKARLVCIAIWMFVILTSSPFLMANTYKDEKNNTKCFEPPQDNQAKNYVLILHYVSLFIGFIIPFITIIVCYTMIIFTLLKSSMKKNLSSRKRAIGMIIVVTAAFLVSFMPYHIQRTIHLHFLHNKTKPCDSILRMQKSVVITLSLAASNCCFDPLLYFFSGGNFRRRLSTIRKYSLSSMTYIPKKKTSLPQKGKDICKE
procedure text: Binding affinity against leukotriene receptor (LTD4) from guinea pig lung parenchymal membranes using [3H]LTD4 as radio ligand
Format: tissue-based, Lung parenchyma
pKi: −log10 of the molar value.
Use 1.0 when the recorded pKi is no lower than 8; use 0.0 when it is lower.

compound=CCCn1cc(Cc2ccc(C(=O)O)cc2OC)c2cc(C(=O)NCC(C)C)ccc21 class_assignment=0.0
compound=CCC(CC)CNC(=O)c1ccc2c(CC3CCCC3)cn(Cc3ccc(C(=O)NS(=O)(=O)c4ccccc4C)cc3OC)c2c1 class_assignment=1.0
compound=CCCc1cn(Cc2ccc(C(=O)NS(=O)(=O)c3ccccc3C)cc2OC)c2cc(C(=O)NCC(CC)CC)ccc12 class_assignment=1.0
compound=CCCn1cc(Cc2ccc(C(=O)NS(=O)(=O)c3ccccc3)cc2OC)c2cc(C(=O)NCC(CC)CC)ccc21 class_assignment=1.0
compound=CCC(CC)CNC(=O)c1ccc2c(CC3CCCCC3)cn(Cc3ccc(C(=O)NS(=O)(=O)c4ccccc4C)cc3OC)c2c1 class_assignment=1.0
compound=CCC(CC)CNC(=O)c1ccc2c(CCc3ccccc3)cn(Cc3ccc(C(=O)NS(=O)(=O)c4ccccc4C)cc3OC)c2c1 class_assignment=0.0
compound=CCC(CC)CNC(=O)c1ccc2c(c1)c(Cc1ccc(C(=O)NS(=O)(=O)c3ccccc3Br)cc1OC)cn2C class_assignment=1.0
compound=CCC(CC)CNC(=O)c1ccc2c(c1)c(Cc1ccc(C(=O)NS(=O)(=O)c3ccccc3C)cc1OC)cn2C class_assignment=1.0
compound=C/C=C\c1cn(Cc2ccc(C(=O)NS(=O)(=O)c3ccccc3C)cc2OC)c2cc(C(=O)NCC(CC)CC)ccc12 class_assignment=0.0
